Test: soluble on expression in E. coli; label from the status in PepcDB or PDB records
measuredProperty: soluble on expression in E. coli

A selection of reference data follows.
- sequenceChain: "MSLKSKVLVIDDEPDIRELLTLTLSRMGLICDAVSDFKQGIEHIKQNYYSLVLTDMRLPDGDGIEIVKFIQKYKPQLPVAVITAYGNVEGAVNTLKAGAFDYVSKPVDLKMLRELVKTALSMQNPSTESPDEGLLVGESLIMQQLRESIHKLARSQAPVFIQGDSGVGKELVAQLIHANGPRKDKPFIPVNCGAIPGELMESEFFGHKKGSFTGAISDKTGLFVAAHGGTLFLDEIAELPLAMQVKLLRAIQEKAIKPIGELYEIPVDVRILSASHKNLIEEINAGRFRQDLYYRINVIELRVPTLMERLSDIPCLTEAILKKLSKNQNRNLVKINPSCFEILSRYHFPGNVRELENILERAMAMCEGEVIEPSEGHHHHHH"
  soluble on expression in E. coli: "soluble"
- sequenceChain: "MAGTGLLALRTLPGPSWVRGSGPSVLSRLQDAAVVRPGFLSTAEEETLSRELEPELRRRRYEYDHWDAAIHGFRETEKSRWSEASRAILQRVQAAAFGPGQTLLSSVHVLDLEARGYIKPHVDSIKFCGATIAGLSLLSPSVMRLVHTQEPGEWLELLLEPGSLYILRGSARYDFSHEILRDEESFFGERRIPRGRRISVICRSLPEGMGPGESGQPPPACLEHHHHHH"
  soluble on expression in E. coli: "soluble"
- sequenceChain: "MGSDKIHHHHHHMPSLFSLYRKIFFGRKPGWDQQPLPHIKVTAPHVTVSETKVSQYAQVCGFQFDGKVLPPTYLYVMAFRLHAVIFTHDGITFPLLGMIHLKNRIQVYRPVTVDETFSLECALTTSRETDSGLEFEFVSKAFVGEELVWESLSTYLYRIDVAGRRVRPPKAIDMAWETPQSWRLSEDLGRRYAKASGDYNLIHLHPVLSKRFGFDRVLAHGMWSKARCLAELMPSIGDRPFTVDVTFKLPLLMPADVGFGYEQNTDNMVFELRDSKGRRPHLSGDVQF"
  soluble on expression in E. coli: "not soluble"
- sequenceChain: "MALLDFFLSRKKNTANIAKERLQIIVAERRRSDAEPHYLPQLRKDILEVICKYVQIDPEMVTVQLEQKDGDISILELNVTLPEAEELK"
  soluble on expression in E. coli: "not soluble"
- sequenceChain: "MLAKRIIPCLDVDKGRVVKGVKFLNLRDAGDPVEVAKRYEEEGADELVFLDITASAEDREIMIDVVKKVAETVFMPFTVGGGIRSLEDMRRLLEAGADKISINTAAVKNPNLIYEGAKRFGSQCIVVAIDAKRKGNSWEVYIHGGRTPTGLDAVEWAKKVESLGAGEILLTSMDRDGTKDGYDIELNRAISEAVNIPVIASGGAGKKEHFYEVFSKTKVEAALAASVFHFREISIPELKEYLLERGINVRPLD"
  soluble on expression in E. coli: "soluble"
- sequenceChain: "MWKITENLYLAQLPMIVGPTSKQEFSKNDIKRVLTLTTEPISEKQKIGGVDYKFLHLLDMPDEPILDNAILETAVLYINEGVEKEENVGVHCLAAVSRSVSICAAYLMYKNQWPVEKALKMIESVRKTIGPNAGFLAQLKIWERSGMSFSADQYKNLKIDIPGITCVDSKTIWRQPVIDDQTKVRFKCRQCRKVIFNSDNIVHPLAEACQKYLIEPMAWLNVSGATCSVSHTCGAKLGTFIASGSKCNGCNKFVRQWIFINRTKLDKVEIAT"
  soluble on expression in E. coli: "not soluble"

Tell me the measured soluble on expression in E. coli of MKFRQKHEDFIVNEILEYELNDYGNYFLYKLQKNGIENLKAISYLSKNFEVPTKEIGYCGLKDRHAITTQYVSIPKEYGKLSLDEDNLKLEYVGTIEKPLKIGRLYGNRFEIIARAVDKDEFLKIADNIRNLSSGAPNYYDDQRFGSVFNGKFIAKEILKGNYEEVVKILLTSYTKSEKKQLKDLKRFIAKNWGNWDECLEYIDKKQIRSKMFRNMVKSLTYENDFKKAFKYVDNRLKELFISAYQSYLWNECLKEFLKEVIPKENRIYVDYSCGTFLFYENIEEELFDKLKEMDFPTIVSDVEYTDPEKRIIKAILKKERIKISDFEKLDFGKLKYTKRPIISIPEDVNTGKFKSDELNSKKYKIDLEFSLKKGSYATIILKRVFNILLEHHHHHH , please.
soluble

Now the same for MGSDKIHHHHHHMNIKIAKNAGFCFGVKRAMKMAWDEVEKNDSGIYALGPLIHNKQAVAKYEEKGLKTVNEIDTIPNHENMIIRSHGVPENIYKEAKDKKLKIVDTTCPFVKKIHTVVSEYHNKGYEIIVIGDMKHPEVIGINGWCENSAIIIKTLEQMENMEFDNSKRYCLVAQTTINPELYISIVNKLSDKLEEIVFNDTICSATKTRQESAKELAKEVDCMIVIGGKHSSNTQKLVKVCEDLVPTFAIETKDELDVNTLKKYKNLGITAGASTPNWIIEEVVTFLENL
not soluble

Now the same for MGSDKIHHHHHHMKYMIGIDGGGTKTEAIAFDKDGNELVRATSGFGNILIDFEEALVHIMEAIDQCQKGVLNEHCVCICLGLAGVSGVNTNELTLRLKKKYGTPIEVFNDAMIAHAAVLKGKDGILTIGGTGTICLGKKGEVYEYSGGWGHILGDAGSGYWIGLQALKRMANQLDQGIRLCPLSLRIQDEFQLLTASHIKRLVYRSSKDKVAAITPFVIREARNGNDAAHEIMMQAGKELARITIDVYNKMQLDLLVSIAVSGSILRFVPEIYDEFKKCCEKSVGEVTFVLQSEPAVKGTYYLMKNMYFKK
not soluble

Now the same for MGHHHHHHSHMSRPGHGGLMPVNGLGFPPQNVARVVVWEWLNEHSRWRPYTATVCHHIENVLKEDARGSVVLGQVDAQLVPYIIDLQSMHQFRQDTGTMRPVRRNFYDPSSAPGKGIVWEWENDGGAWTAYDMDICITIQNAYEKQHPWLDLSSLGFCYLIYFNSMSQMNRQTRRRRRLRRRLDLAYPLTVGSIPKSQSWPVGASSGQPCSCQQCLLVNSTRAASNAILASQRRKAPPAPPL
not soluble

Now the same for MGSDKIHHHHHHMHIAPHDNQNKPIVDAEHDLVPLNYFNIVKLRRGEVFEYAVPGYETCVVPATGTVDIDVEGAIYPDLGNRTEDVWDGEPEGVYVPVGAKVRITCKTDVTETFIAGAKYDKVLEPFDVRADALDVVQYGSDDTKTHRKIKHILGANHHDKVGRLLVSELYTVGEGGWSGFPSHKHDTDRLPDETRHDETYNFRFKPNYGSGVQMLQREDNQPGDAYHIMDGSTVLIDKGYHPCAVLPGYQMYYFTILGGLSQRSLKQYFQPTHAEQLHTIPGIMDMVAKFK
not soluble

###

Experiment: soluble on expression in E. coli; label from the status in PepcDB or PDB records
measuredProperty: soluble on expression in E. coli

A selection of reference data follows.
- sequenceChain: "ITEDEIRTLMEQGADEGVFDRAEQELVENIFRLDNRKASAVMTPRKDVVILDLEDGPERNRELLLGHPFSHFPVCRGDTDQVIGMLNAKTLLDRLLRGEALDFAAELSPPLYVPSTCSLMQLLEQFKQARSHSALVVDEYGELEGLVSINNVMEAIVGDLPAIDGEEDEIV"
  soluble on expression in E. coli: "not soluble"
- sequenceChain: "MSSFQLQQLPSLPIKEVFKSLGVCDLLNLCRSSNKSRRLVKKSLKDITFTLKIVAEEKHYKIWLKEDFSKHKARIRAENSNGTSLFKNIRWLMHTFWVETVYLDCTNVEEGDVVKVVEYLKKEKPYYLKLYFECPMISDSLWQLMLNCEADVLIISVDREVKVTFDNVPLLFNCECIILHGVKFSEKGMNLLFKTWQSSKERTLQCVSLTRKLGPFWKKQANEKVVLKGIDVESVEKKRIFKVKKDGIKKSTTYNLVKNDGELATLKFDKQEICFHTENDR"
  soluble on expression in E. coli: "not soluble"
- sequenceChain: "MKTYDPATAVKTTGEFNGKKRFAVLLMGTDTGALNRTEKRGRTDTMILAVVNPAKKRYTLVSIPRDTMAQMVGSSSFTTEKINAAYEIGGARMSMDSVSALINVPIKYYAVVNMGGIMKMIRYVGGINIRPTLSFEYGGYVFKKGKLTHMGGAGALAYSRMRYDDPRGDYGRQERQRQVITTLIKKAVSVSSLTNLDSILTSVSSNVRTNLPFSALQQIALNYRGCANSSSSDYLHGYNAMIDDAAYQVQPTEELQRISDLVRTELGLEHHHHHH"
  soluble on expression in E. coli: "soluble"
- sequenceChain: "GMYEEWKIVKREAPILGNDQLIENIWKMKREDSPYDIISLHKVNLIGGGNDAVLILPGTWSSGEQLVTISWNGVHYTIPDYRKSIVLYLARNGFNVYTIDYRTHYVPPFLKDRQLSFTANWGWSTWISDIKEVVSFIKRDSGQERIYLAGESFGGIAALNYSSLYWKNDIKGLILLDGGPTKHGIRPKFYTPEVNSIEEMEAKGIYVIPSRGGPNNPIWSYALANPDMPSPDPKYKSISDFLMDSLYVTGSANPYDYPYSKKEDMFPILASFDPYWPYRLSLERDLKFDYEGILVPTIAFVSERFGIQIFDSKILPSNSEIILLKGYGHLDVYTGENSEKDVNSVVLKWLSQQR"
  soluble on expression in E. coli: "soluble"
- sequenceChain: "MTLAIEMKDVMKSFNEKTALRNVNIEVKQGEIFGFLGPSGSGKTTTVKILTSQLLHSVGTVRVLGKDITGPSSIDYKRIGILTDNSGLYERLSIYDNLLLFCDLYDCKKERIDEVLAQVNLLEDKKTLVKKLSKGMKQRVTLARAILHKPDILFLDEPTSALDPVNVQNIHKILKDLNREGTTIFLTTHNMDEAETLCNRIAFLCSGEIVALDTPENLRLQYAKDQIQVVLKDKKKETVQKDELGAKRISEWMKKGELLSIHSYEPTLGDIFIEVTGRGL"
  soluble on expression in E. coli: "not soluble"
- sequenceChain: "GSESKCPEELANYCDMLLRKTPLSKKLTSEEIEAKLKEVLKKLKYVQNKDVFMRYHKAHLTRRLILDISADSEIEENMVEWLREVGMPADYVNKLARMFQDIKVSEDLNQAFKEMHKNNKLALPADSVNIKILNAGAWSRSSEKVFVSLPTELEDLIPEVEEFYKKNHSGRKLHWHHLMSNGIITFKNEVGQYDLEVTTFQLAVLFAWNQRPREKISFENLKLATELPDAELRRTLWSLVAFPKLKRQVLLYEPQVNSPKDFTEGTLFSVNQEFSLIKNAKVQKRGKINLIGRLQLTTERMREEENEGIVQLRILRTQEAIIQIMKMRKKISNAQLQTELVEILKNMFLPQKKMIKEQIEWLIEHKYIRRDESDINTFIYMA"
  soluble on expression in E. coli: "soluble"
- sequenceChain: "MAHHHHHHMKLEFAHEAIVSRRRLSKFGYSLQTEKWTLHVNKKKRERKRKDSKKREEGEVIITKNANEREIKTVEESKHHTTCRLWFANVAACMYFLALATEELNTILQTEVFSKQRLIYWQMYHMPCSHISCMSARIPPLPPFRLYVTLKPKMRGSIFANISVGRMVGYEAAWSSTYSKRKR"
  soluble on expression in E. coli: "not soluble"
- sequenceChain: "MGSSHHHHHHGGTGENLYFQGGSGDLLHFISLVIDLRDYPGYATCIRATEYPGLALCEYNAVAGMRYTVPLGYAASAVYFYLYHRPRLSFADRSLTKLHHYFYPSAGYSTPLGIIGGVICGAAECVQGLTPAALEATAAREKAAAVMAAEQYSQRHRAVKERLKAEQSFASKALAWLQLCEDPVQAELARMGLGEDSIAWETLLVPQGYLWTQLHSVVHDPARYRGYEAPVATGAAVPTSADERLSQPSGGANTPCPSPSGVLSLSRAYFTKPQVDAVVSRIGTLRTSPEEDRWMRSAGRCGAYGVFGMLLTWNSGGALFRAQMGLGLGVVIAGLASATRLDEVFAHL"
  soluble on expression in E. coli: "not soluble"

Tell me the measured soluble on expression in E. coli of MGNCLKSPTSDDISLLHESQSDRASFGEGTEPDQEPPPPYQEQVPVPVYHPTPSQTRLATQLTEEEQIRIAQRIGLIQHLPKGVYDPGRDGSEKKIRECVICMMDFVYGDPIRFLPCMHIYHLDCIDDWLMRSFTCPSCMEPVDAALLSSYETN , please.
soluble

Now the same for MPVINVKDDEDFRNQLSLAGLKSVIVDFTAVWCGPCKMIAPTFEALSNQYLGAVFLKVDVEICEKTSSENGVNSMPTFMVFQSGVRVEQMKGADAKALETMVKKYADNSAADSLVAGQMDLTPLVDKKQMECLNESDDTPLGRFLEGNCNLVSDCDEQLIISLPFNQPVKVHSILIKGVSDRAPKKVKVFINLPKTTDFDNATALEPTQMLEFDESSIQGHGQVVALKYVKFQNVQNIQFFIENNVGGGDVTELVKLTVFGTPLSALNMNEFKRVAGKAGDAAH
not soluble

Now the same for MSRLPLLLLSVLLATPAAQASDCPDLALVLALDSSLSIDRAEFALQAEGYAEAFRSPAVQAALAAAGTVDVAAVVWSDGAAPPARLGWQRIAAPEDARRLAVRLAALERVAPGRTGVGGGLAAALEMLAGHGCAGRRLVNLSGDGRETLAPRMGLRGQLMRARAEAEALGATVNALAVTDEEADLPDWFRSHVIVGPGAFVMETREFRGFAEAVARKLVREIAPPALAAGRPGLPPHRLTPGGRDHPARRSLEHHHHHH
not soluble

Source of measurements: the DeepSol protein solubility set
